Values from patent US20190248902A1

Target: T1, human ASGR-1 (wild type) (human, UniProt P07306 1-291)
T1 construct: also called wt ASGR1; huASGR-1
T1 sequence: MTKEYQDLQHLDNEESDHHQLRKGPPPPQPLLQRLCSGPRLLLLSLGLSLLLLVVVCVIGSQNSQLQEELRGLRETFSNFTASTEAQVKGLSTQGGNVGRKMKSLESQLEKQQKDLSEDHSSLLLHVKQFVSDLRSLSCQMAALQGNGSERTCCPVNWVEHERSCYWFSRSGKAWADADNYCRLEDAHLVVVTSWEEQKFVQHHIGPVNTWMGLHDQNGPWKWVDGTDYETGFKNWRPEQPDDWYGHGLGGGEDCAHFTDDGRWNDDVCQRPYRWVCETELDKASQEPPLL
Assay: FACS, transfected CHO-S cells, mAb 5 ug/ml
Procedure: The ability of human ASGR-1-specific, ligand competing antibodies to bind to the mutant hASGR-1 proteins was assessed by FACS as described above. Antibodies were tested for binding to the individual mutant and wild type ASGR-1 constructs using normalized antibody concentrations (5 ug/ml). […] Samples were analyzed using a BD Accuri™ Flow Cytometer and an Intellicyt HyperCyt Autosampler. […]
Recorded measurements of FACS Binding Geomean, one per entry
Answer field: number only, no words.

197G3 (antibody, V domains shown, mAb) VH: QVQLVESGGGVVQPGRSLRLSCVASGFTFSSHGMHWVRQAPGKGLEWVAVIWYDGSNKNYADSVKGRFTISRDNSKNTLYLQMNSLRAEDTAVYYCARDPSVGYDGMDVWGQGTTVTVSS VL: DIQMTQSPSSLSASVGDRVTITCRASQGIGNHLAWFQQKPGKAPKSLIYAASSLQSGVPSKFSGSRSGTDFSLTISSLQPEDFATYYCQQYSNYPVTFGPGTKVDIK	13300

Fill blank: measured FACS Binding Geomean of the binder 52H2 (antibody, V domains shown, mAb) VH: EVQLLESGGGLVQPGGSLRLSCAASGFTFSRNAMSWVRQAPGMGLEWVSAISGRGGNTFYADSVKGRFTVSRDNSKNTLFLQMNSLRAEDTAVYYCAKNGREQWLDYWGQGTLVTVSS VL: DIQMTQSPSSVSASVGDRVTITCRASQNITNWLAWFQQKPGRAPKLLIYTTSSLQSGVPSRFSGSGSGTDFTLTISSLQPEDFATYCCQQTNSFPWTFGHGTKVEVK is ____.
48000
